From: paper PMC4686831

TARGET: LXRb (Homo sapiens, UniProt P55055)
Sequence (P55055 222-460 limits assumed): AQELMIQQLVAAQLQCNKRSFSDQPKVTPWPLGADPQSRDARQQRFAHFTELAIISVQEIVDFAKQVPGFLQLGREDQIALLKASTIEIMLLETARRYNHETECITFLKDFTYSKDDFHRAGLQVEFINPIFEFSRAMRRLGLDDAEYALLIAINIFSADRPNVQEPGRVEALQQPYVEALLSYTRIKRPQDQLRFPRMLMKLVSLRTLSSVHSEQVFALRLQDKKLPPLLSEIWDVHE
ASSAY_COMMENT: Receptor reporter assay selectivity panel: LXRb
MEASURE_NAME: EC50

Asked: Respond only with EC50 recorded for O=C(O)c1ccc(-c2nn(C(=O)c3c(Cl)cccc3C(F)(F)F)c3cccc(F)c23)c(F)c1
Given back: > 30 µM

----------
TARGET: ERa (Homo sapiens, UniProt P03372)
Sequence (P03372 whole entry): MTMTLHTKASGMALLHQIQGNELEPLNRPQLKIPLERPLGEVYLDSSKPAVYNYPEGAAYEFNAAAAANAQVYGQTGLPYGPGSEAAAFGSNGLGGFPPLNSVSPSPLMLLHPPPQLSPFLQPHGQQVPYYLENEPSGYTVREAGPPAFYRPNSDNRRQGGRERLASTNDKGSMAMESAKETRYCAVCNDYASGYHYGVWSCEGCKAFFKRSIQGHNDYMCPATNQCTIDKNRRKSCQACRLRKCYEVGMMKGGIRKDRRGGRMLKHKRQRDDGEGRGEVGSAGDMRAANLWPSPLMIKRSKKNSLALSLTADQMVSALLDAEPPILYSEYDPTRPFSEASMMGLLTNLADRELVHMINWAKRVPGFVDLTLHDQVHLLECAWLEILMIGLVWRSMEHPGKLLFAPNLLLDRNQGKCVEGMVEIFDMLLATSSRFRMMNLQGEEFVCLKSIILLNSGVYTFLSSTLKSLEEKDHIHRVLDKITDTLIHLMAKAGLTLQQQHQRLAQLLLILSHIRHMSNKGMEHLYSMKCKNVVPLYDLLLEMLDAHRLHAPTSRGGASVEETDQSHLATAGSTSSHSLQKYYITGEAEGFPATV
ASSAY_COMMENT: Receptor reporter assay selectivity panel: ERa
MEASURE_NAME: IC50

Asked: Jot down IC50 (ERa (Homo sapiens, UniProt P03372)) of O=C(O)c1ccc(-c2nn(C(=O)c3c(Cl)cccc3C(F)(F)F)c3cccc(F)c23)c(F)c1 .
Given back: > 30 µM

----------
TARGET: UniProt:P51449
Sequence (P51449 97-518): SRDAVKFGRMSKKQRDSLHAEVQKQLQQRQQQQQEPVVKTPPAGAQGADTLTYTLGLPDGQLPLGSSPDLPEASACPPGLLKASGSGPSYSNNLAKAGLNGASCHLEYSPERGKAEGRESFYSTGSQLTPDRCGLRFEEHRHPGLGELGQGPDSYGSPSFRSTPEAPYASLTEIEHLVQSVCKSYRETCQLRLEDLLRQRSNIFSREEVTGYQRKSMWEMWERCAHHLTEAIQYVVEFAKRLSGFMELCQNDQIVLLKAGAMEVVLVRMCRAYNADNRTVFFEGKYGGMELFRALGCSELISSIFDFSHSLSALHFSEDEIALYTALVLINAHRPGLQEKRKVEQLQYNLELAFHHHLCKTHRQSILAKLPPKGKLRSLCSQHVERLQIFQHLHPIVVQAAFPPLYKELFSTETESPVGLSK
ASSAY_COMMENT: Chimeric RORγt-GAL4 luciferase reporter assay in HEK293T cells
RECORDED_CONDITIONS: mean±s.d.
MEASURE_NAME: pIC50
# pIC50: negative log10 of molar concentration; output just the value

Asked: Give the reported pIC50 for this molecule. CC1(C(=O)O)CC=C(c2nn(C(=O)c3c(Cl)cccc3C(F)(F)F)c3cccc(F)c23)CC1 (stereo not shown)
Given back: 6.55

----------
TARGET: CAR1 (Homo sapiens)
Sequence (Q14994 1-348 isoform Q14994-2): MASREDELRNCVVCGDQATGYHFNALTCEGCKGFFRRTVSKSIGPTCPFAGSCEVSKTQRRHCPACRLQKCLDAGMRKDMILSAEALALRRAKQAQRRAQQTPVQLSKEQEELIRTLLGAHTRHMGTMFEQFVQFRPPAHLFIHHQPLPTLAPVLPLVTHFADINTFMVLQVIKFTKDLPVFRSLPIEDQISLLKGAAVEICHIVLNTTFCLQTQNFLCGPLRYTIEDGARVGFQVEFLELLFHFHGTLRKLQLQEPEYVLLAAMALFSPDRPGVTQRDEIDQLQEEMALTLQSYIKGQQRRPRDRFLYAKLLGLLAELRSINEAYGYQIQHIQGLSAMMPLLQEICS
ASSAY_COMMENT: Receptor reporter assay selectivity panel: CAR1
MEASURE_NAME: IC50 (µM)
Please give a number only; it is taken to be in µM.

Asked: Output measured IC50 for this item: O=C(O)c1ccc(-c2nn(C(=O)c3c(Cl)cccc3C(F)(F)F)c3cccc(F)c23)c(F)c1
Given back: 16.7

----------
TARGET: UniProt P11473
Sequence (P11473 127-427 limits assumed): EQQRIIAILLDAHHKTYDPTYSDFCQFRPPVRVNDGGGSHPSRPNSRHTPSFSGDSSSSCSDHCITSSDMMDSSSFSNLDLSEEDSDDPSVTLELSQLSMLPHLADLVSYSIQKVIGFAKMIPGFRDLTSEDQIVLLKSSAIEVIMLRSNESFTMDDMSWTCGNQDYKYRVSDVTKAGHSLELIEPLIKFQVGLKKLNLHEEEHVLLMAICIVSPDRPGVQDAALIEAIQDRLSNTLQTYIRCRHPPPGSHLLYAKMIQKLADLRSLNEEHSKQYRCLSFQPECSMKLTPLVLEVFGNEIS
ASSAY_COMMENT: Receptor reporter assay selectivity panel: VDR
pEC50: −log10 of the molar value.
MEASURE_NAME: pEC50

Asked: Give the reported value of pEC50 for this record: O=C(O)c1ccc(-c2nn(C(=O)c3c(Cl)cccc3C(F)(F)F)c3cccc(F)c23)c(F)c1
Given back: < 4.52
